Kindly supply the reported PBM binding z-score values for the records listed here.
- System: PPARa:RXRa (NR concentration 270 nM, RXRa partner concentration 90 nM)
- measurement_protocol: PBM binding z-score (relative to random genomic background probes); higher = stronger binding; sequences stand for … in GC…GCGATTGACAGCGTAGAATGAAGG

biosequence=CCTCGGTGGACAACAGGAGGTCAGAGCTGCCAGA value_type="PBM binding z-score" measured_value=1.67

State recorded PBM binding z-score for all listed sequences.
1. TCGAGTAGGTTACCAATGGGGCATTCCGCTTTCT
2. GCGACCGGGGCAAAGCAGGTTACCATAAGGTTGG
3. CCTTACGTGTCACGAGGTTATAGCACGACGAGCG

[A]
1.01
1.42
2.43

State recorded PBM binding z-score for all listed sequences.
1. ACTTACGGGTCAACGAGGTTATAGAACGCGTATA
2. GCTTGTAGATCGAGGTTAAGAAAGACTAAGCTAA
3. CCAGACAGGTGGAAGGTAACTCAGTCTGGTACGC
4. CGAACTAGGTCAGATCAGGACAGTGAAGGATGAT
5. ACAGACAGGTGATGAAGGTAACTGAGGCTATCAT
6. CCTACTGGGCCATCAGGTCATGGATATCAACGTT

[A]
1. 5.87
2. 1.68
3. 0.13
4. 3.07
5. 0.0902
6. 3.14

State recorded PBM binding z-score for all listed sequences.
1. GCTGCTAGGTCAGGTTGGTCATCTAACGGGTACG
2. GGAACGAGGGCAAAGTTGTTAGCATCTGTCGACG
3. CGTCCAAGATCAAAGGTCAGTGAAGAGATGACGG
4. TAGCCTAGGTCATACGGGCCAGTATAGTGTCGGC
5. CTCGAAAGGTCGGTTGAGGTAAGTATACGGATAA
6. ACTACTAGTTGAGACGAGGGCAACCGATAGGTTG
7. TCGAGTAGGTTAGTGGCATTCAGAATGGCGTCGA

[A]
[1.45, 2.61, 4.84, 3.5, 2.34, 0.173, 0.197]

State recorded PBM binding z-score for all listed sequences.
1. ACTATTAGTTAAGACGAGGGCAACCGATAGGTTG
2. GTTTACGGGTCAAAGGTTATAGCATGAATAGAAT
3. TCTAGAAGGCCAGAGGGTCACTCAAGAGGTACGG
4. CCAGACAGGTGAAAGGTAACGCAGTCTGGTACGC
5. TAGCCTAGGTCATGCGGGCCAGTCTAGTGTCGGC

[A]
0.271
6.92
2.5
3.57
3.43

###

- System: PPARg:RXRa (NR concentration 180 nM, RXRa partner concentration 90 nM)
- measurement_protocol: PBM binding z-score (relative to random genomic background probes); higher = stronger binding; sequences stand for … in GC…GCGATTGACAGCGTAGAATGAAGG
Returns one of satisfied or not satisfied; satisfied when PBM binding z-score is >= 4.

Sample answers from the record:
biosequence=TCATATAGGTAAAAGGTGAAAATCGGTGTGGTAA assayed_system="PPARg:RXRa (NR concentration 180 nM, RXRa partner concentration 90 nM)" category=satisfied
biosequence=CAAACTAGGTCACGAAAGGTCATAGTCGAATGAC assayed_system="PPARg:RXRa (NR concentration 180 nM, RXRa partner concentration 90 nM)" category=satisfied
biosequence=GCGACTGGGGGAAAGCAGGTTACCATAAGGTTGG assayed_system="PPARg:RXRa (NR concentration 180 nM, RXRa partner concentration 90 nM)" category="not satisfied"

[Q] State whether the measured PBM binding z-score reaches 4, counting equality as reaching it, for CCTTACGGGTCACTGACAGGTTAGAGCATTTGGA
[A] satisfied

[Q] State whether the measured PBM binding z-score reaches 4, counting equality as reaching it, for CATACAGGGGCAGCTAGGCCAGAGTAGGGACGGC
[A] not satisfied

[Q] State whether the measured PBM binding z-score reaches 4, counting equality as reaching it, for TGAATGAGGTTAAACATCAGGGAACGTGGCGTCG
[A] not satisfied

Cited source for all entries: the supplement of paper PMC6555819
